// provenance: the supplement of paper PMC6757056

B1: library; a variant is named by its letters at N, in order (parent)
chain: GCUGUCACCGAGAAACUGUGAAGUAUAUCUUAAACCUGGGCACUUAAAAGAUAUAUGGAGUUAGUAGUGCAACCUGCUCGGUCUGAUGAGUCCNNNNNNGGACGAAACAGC

variants of: B1; test: normalized RNA/DNA level with ligand (relative to sTRSVctl = 100) (log10 (% of sTRSVctl)); HEK293T; ligand: cyclic di-GMP (c-di-GMP-II aptamer); ligand concentration (+) RNA-Seq: 1 mM; higher = less ribozyme self-cleavage, higher mRNA level; details: reporter: mCherry (pCS4076), ligand present: yes
quantity.measured: normalized RNA/DNA level with ligand (log10)

1) GCUGUCACCGAGAAACUGUGAAGUAUAUCUUAAACCUGGGCACUUAAAAGAUAUAUGGAGUUAGUAGUGCAACCUGCUCGGUCUGAUGAGUCCUAGCAUGGACGAAACAGC [UAGCAU] : 1.8
2) GCUGUCACCGAGAAACUGUGAAGUAUAUCUUAAACCUGGGCACUUAAAAGAUAUAUGGAGUUAGUAGUGCAACCUGCUCGGUCUGAUGAGUCCACCCGUGGACGAAACAGC [ACCCGU] : 1.84
3) GCUGUCACCGAGAAACUGUGAAGUAUAUCUUAAACCUGGGCACUUAAAAGAUAUAUGGAGUUAGUAGUGCAACCUGCUCGGUCUGAUGAGUCCAUGACAGGACGAAACAGC [AUGACA] : 1.72
4) GCUGUCACCGAGAAACUGUGAAGUAUAUCUUAAACCUGGGCACUUAAAAGAUAUAUGGAGUUAGUAGUGCAACCUGCUCGGUCUGAUGAGUCCUAGAUAGGACGAAACAGC [UAGAUA] : 1.78
5) GCUGUCACCGAGAAACUGUGAAGUAUAUCUUAAACCUGGGCACUUAAAAGAUAUAUGGAGUUAGUAGUGCAACCUGCUCGGUCUGAUGAGUCCCCCUAAGGACGAAACAGC [CCCUAA] : 1.64
6) GCUGUCACCGAGAAACUGUGAAGUAUAUCUUAAACCUGGGCACUUAAAAGAUAUAUGGAGUUAGUAGUGCAACCUGCUCGGUCUGAUGAGUCCCUAAUUGGACGAAACAGC [CUAAUU] : 1.74
7) GCUGUCACCGAGAAACUGUGAAGUAUAUCUUAAACCUGGGCACUUAAAAGAUAUAUGGAGUUAGUAGUGCAACCUGCUCGGUCUGAUGAGUCCCUUCCGGGACGAAACAGC [CUUCCG] : 1.89
8) GCUGUCACCGAGAAACUGUGAAGUAUAUCUUAAACCUGGGCACUUAAAAGAUAUAUGGAGUUAGUAGUGCAACCUGCUCGGUCUGAUGAGUCCGGUCCCGGACGAAACAGC [GGUCCC] : 1.92
9) GCUGUCACCGAGAAACUGUGAAGUAUAUCUUAAACCUGGGCACUUAAAAGAUAUAUGGAGUUAGUAGUGCAACCUGCUCGGUCUGAUGAGUCCUCAAACGGACGAAACAGC [UCAAAC] : 1.8
10) GCUGUCACCGAGAAACUGUGAAGUAUAUCUUAAACCUGGGCACUUAAAAGAUAUAUGGAGUUAGUAGUGCAACCUGCUCGGUCUGAUGAGUCCGUGUAGGGACGAAACAGC [GUGUAG] : 1.85
11) GCUGUCACCGAGAAACUGUGAAGUAUAUCUUAAACCUGGGCACUUAAAAGAUAUAUGGAGUUAGUAGUGCAACCUGCUCGGUCUGAUGAGUCCCGGAAAGGACGAAACAGC [CGGAAA] : 1.28
12) GCUGUCACCGAGAAACUGUGAAGUAUAUCUUAAACCUGGGCACUUAAAAGAUAUAUGGAGUUAGUAGUGCAACCUGCUCGGUCUGAUGAGUCCACACCCGGACGAAACAGC [ACACCC] : 1.86
13) GCUGUCACCGAGAAACUGUGAAGUAUAUCUUAAACCUGGGCACUUAAAAGAUAUAUGGAGUUAGUAGUGCAACCUGCUCGGUCUGAUGAGUCCGGUUCUGGACGAAACAGC [GGUUCU] : 1.77
14) GCUGUCACCGAGAAACUGUGAAGUAUAUCUUAAACCUGGGCACUUAAAAGAUAUAUGGAGUUAGUAGUGCAACCUGCUCGGUCUGAUGAGUCCCCAUCCGGACGAAACAGC [CCAUCC] : 1.92
15) GCUGUCACCGAGAAACUGUGAAGUAUAUCUUAAACCUGGGCACUUAAAAGAUAUAUGGAGUUAGUAGUGCAACCUGCUCGGUCUGAUGAGUCCGUCGAGGGACGAAACAGC [GUCGAG] : 1.76
16) GCUGUCACCGAGAAACUGUGAAGUAUAUCUUAAACCUGGGCACUUAAAAGAUAUAUGGAGUUAGUAGUGCAACCUGCUCGGUCUGAUGAGUCCCCACGGGGACGAAACAGC [CCACGG] : 1.89
17) GCUGUCACCGAGAAACUGUGAAGUAUAUCUUAAACCUGGGCACUUAAAAGAUAUAUGGAGUUAGUAGUGCAACCUGCUCGGUCUGAUGAGUCCACCAACGGACGAAACAGC [ACCAAC] : 1.76
18) GCUGUCACCGAGAAACUGUGAAGUAUAUCUUAAACCUGGGCACUUAAAAGAUAUAUGGAGUUAGUAGUGCAACCUGCUCGGUCUGAUGAGUCCAUUCACGGACGAAACAGC [AUUCAC] : 1.88
19) GCUGUCACCGAGAAACUGUGAAGUAUAUCUUAAACCUGGGCACUUAAAAGAUAUAUGGAGUUAGUAGUGCAACCUGCUCGGUCUGAUGAGUCCAGAGUGGGACGAAACAGC [AGAGUG] : 1.8
20) GCUGUCACCGAGAAACUGUGAAGUAUAUCUUAAACCUGGGCACUUAAAAGAUAUAUGGAGUUAGUAGUGCAACCUGCUCGGUCUGAUGAGUCCCCACAAGGACGAAACAGC [CCACAA] : 1.7
21) GCUGUCACCGAGAAACUGUGAAGUAUAUCUUAAACCUGGGCACUUAAAAGAUAUAUGGAGUUAGUAGUGCAACCUGCUCGGUCUGAUGAGUCCUCGUUGGGACGAAACAGC [UCGUUG] : 1.83
22) GCUGUCACCGAGAAACUGUGAAGUAUAUCUUAAACCUGGGCACUUAAAAGAUAUAUGGAGUUAGUAGUGCAACCUGCUCGGUCUGAUGAGUCCUGUAUCGGACGAAACAGC [UGUAUC] : 1.87
23) GCUGUCACCGAGAAACUGUGAAGUAUAUCUUAAACCUGGGCACUUAAAAGAUAUAUGGAGUUAGUAGUGCAACCUGCUCGGUCUGAUGAGUCCCAGCGAGGACGAAACAGC [CAGCGA] : 1.7
